Items are presented alongside their recorded Kd.
experiment: Binding affinity to 5'-ATmCGGAT-3' DNA (unknown origin) assessed as dissociation constant incubated for 180 secs by SPR analysis
# unit: nM | format: bare number

Please review the following examples before continuing.
[
  {
    "COMPOUND_STRING": "CC(=O)Nc1cc(C(=O)Nc2cn(C)c(C(=O)Nc3cc(C(=O)Nc4cc(C(=O)NCCCC(=O)Nc5cn(C)c(C(=O)Nc6cn(C)c(C(=O)Nc7cc(C(=O)Nc8cc(C(=O)NCCC(=O)NCCCN(C)C)n(C)c8)n(C)c7)n6)n5)n(C)c4)n(C)c3)n2)n(C)c1",
    "RESULT_TYPE": "Kd",
    "OBSERVED_VALUE": 61
  },
  {
    "COMPOUND_STRING": "CC(=O)Nc1cc(C(=O)NCCC(=O)Nc2cn(C)c(C(=O)Nc3cc(C(=O)NCC[C@@H](N)C(=O)Nc4cc(C(=O)NCCC(=O)Nc5cn(C)c(C(=O)Nc6cn(C)c(C(=O)NCCC(=O)NCCCN(C)C)n6)n5)n(C)c4)n(C)c3)n2)n(C)c1",
    "RESULT_TYPE": "Kd",
    "OBSERVED_VALUE": 1.7
  },
  {
    "COMPOUND_STRING": "CC(=O)Nc1cc(C(=O)NCCC(=O)Nc2cn(C)c(C(=O)Nc3cc(C(=O)NCCCC(=O)Nc4cc(C(=O)NCCC(=O)Nc5cn(C)c(C(=O)Nc6cn(C)c(C(=O)NCCC(=O)NCCCN(C)C)n6)n5)n(C)c4)n(C)c3)n2)n(C)c1",
    "RESULT_TYPE": "Kd",
    "OBSERVED_VALUE": 8.9
  }
]

Quick one: give measured Kd for CC(=O)Nc1cc(C(=O)Nc2cn(C)c(C(=O)Nc3cc(C(=O)Nc4cc(C(=O)NCCCC(=O)Nc5cn(C)c(C(=O)Nc6cn(C)c(C(=O)NCCC(=O)Nc7cc(C(=O)NCCC(=O)NCCCN(C)C)n(C)c7)n6)n5)n(C)c4)n(C)c3)n2)n(C)c1
130

====

assay: Binding affinity to 5'-ATGGmCAT-3' DNA (unknown origin) in reverse orientation assessed as change in melting temperature at 5 uM by UV-vis spectrophotometry
Items are presented alongside their recorded ΔTm.
Output should be the measured figure followed by the unit it is expressed in.

Please review the following examples before continuing.
[
  {
    "COMPOUND_STRING": "CC(=O)Nc1cc(C(=O)NCCC(=O)Nc2cn(C)c(C(=O)Nc3cc(C(=O)NCC[C@@H](N)C(=O)Nc4cc(C(=O)NCCC(=O)Nc5cn(C)c(C(=O)Nc6cn(C)c(C(=O)NCCC(=O)NCCCN(C)C)n6)n5)n(C)c4)n(C)c3)n2)n(C)c1",
    "ΔTm": "17.9 °C"
  },
  {
    "COMPOUND_STRING": "CC(=O)Nc1cc(C(=O)NCCC(=O)Nc2cn(C)c(C(=O)Nc3cc(C(=O)NCCCC(=O)Nc4cc(C(=O)NCCC(=O)Nc5cn(C)c(C(=O)Nc6cn(C)c(C(=O)NCCC(=O)NCCCN(C)C)n6)n5)n(C)c4)n(C)c3)n2)n(C)c1",
    "ΔTm": "16.2 °C"
  },
  {
    "COMPOUND_STRING": "CC(=O)Nc1cc(C(=O)Nc2cc(C(=O)Nc3cn(C)c(C(=O)Nc4cc(C(=O)NCCCC(=O)Nc5cc(C(=O)Nc6cc(C(=O)Nc7cn(C)c(C(=O)Nc8cn(C)c(C(=O)NCCC(=O)NCCCN(C)C)n8)n7)n(C)c6)n(C)c5)n(C)c4)n3)n(C)c2)n(C)c1",
    "ΔTm": "6.7 °C"
  }
]

Here is the next item to consider.
Quick one: give measured ΔTm for CC(=O)Nc1cc(C(=O)Nc2cn(C)c(C(=O)NCCC(=O)Nc3cc(C(=O)NCCCC(=O)Nc4cn(C)c(C(=O)Nc5cn(C)c(C(=O)NCCC(=O)Nc6cc(C(=O)NCCC(=O)NCCCN(C)C)n(C)c6)n5)n4)n(C)c3)n2)n(C)c1
8.6 °C

====

experiment: Binding affinity to 5'-ATGGmCAT-3' DNA (unknown origin) in reverse orientation assessed as change in melting temperature at 5 uM by UV-vis spectrophotometry
RESULT_TYPE: ΔTm (°C)
# unit: °C | format: bare number

Please review the following examples before continuing.
[
  {
    "COMPOUND_STRING": "CC(=O)Nc1cc(C(=O)NCCC(=O)Nc2cn(C)c(C(=O)Nc3cc(C(=O)NCCCC(=O)Nc4cc(C(=O)Nc5cc(C(=O)Nc6cn(C)c(C(=O)Nc7cn(C)c(C(=O)NCCC(=O)NCCCN(C)C)n7)n6)n(C)c5)n(C)c4)n(C)c3)n2)n(C)c1",
    "ΔTm [°C]": 13.1
  },
  {
    "COMPOUND_STRING": "CC(=O)Nc1cc(C(=O)Nc2cc(C(=O)Nc3cn(C)c(C(=O)Nc4cc(C(=O)NCCCC(=O)Nc5cc(C(=O)NCCC(=O)Nc6cn(C)c(C(=O)Nc7cn(C)c(C(=O)NCCC(=O)NCCCN(C)C)n7)n6)n(C)c5)n(C)c4)n3)n(C)c2)n(C)c1",
    "ΔTm [°C]": 14.8
  }
]

Here is the next item to consider.
Quick one: give measured ΔTm for CC(=O)Nc1cc(C(=O)Nc2cn(C)c(C(=O)NCCC(=O)Nc3cc(C(=O)NCC[C@H](N)C(=O)Nc4cn(C)c(C(=O)Nc5cn(C)c(C(=O)NCCC(=O)Nc6cc(C(=O)NCCC(=O)NCCCN(C)C)n(C)c6)n5)n4)n(C)c3)n2)n(C)c1
13.3

====

Items are presented alongside their recorded pKd.
test: Binding affinity to 5'-ATCGGAT-3' DNA (unknown origin) assessed as dissociation constant incubated for 180 secs by SPR analysis
// pKd: -log10(molar conc.)

[
  {
    "COMPOUND_STRING": "CC(=O)Nc1cc(C(=O)Nc2cn(C)c(C(=O)NCCC(=O)Nc3cc(C(=O)NCC[C@H](N)C(=O)Nc4cn(C)c(C(=O)Nc5cn(C)c(C(=O)NCCC(=O)Nc6cc(C(=O)NCCC(=O)NCCCN(C)C)n(C)c6)n5)n4)n(C)c3)n2)n(C)c1",
    "pKd": 8.44
  }
]

Here is the next item to consider.
Quick one: give measured pKd for CC(=O)Nc1cc(C(=O)NCCC(=O)Nc2cn(C)c(C(=O)Nc3cc(C(=O)NCCCC(=O)Nc4cc(C(=O)Nc5cc(C(=O)Nc6cn(C)c(C(=O)Nc7cn(C)c(C(=O)NCCC(=O)NCCCN(C)C)n7)n6)n(C)c5)n(C)c4)n(C)c3)n2)n(C)c1
6.28

====

Items are presented alongside their recorded Ka.
assay: Binding affinity to 5'-ATCGGAT-3' DNA (unknown origin) assessed as association constant incubated for 180 secs by SPR analysis
# unit: ×10⁶ /M/s | format: bare number

[
  {
    "COMPOUND_STRING": "CC(=O)Nc1cc(C(=O)Nc2cn(C)c(C(=O)NCCC(=O)Nc3cc(C(=O)NCC[C@H](N)C(=O)Nc4cn(C)c(C(=O)Nc5cn(C)c(C(=O)NCCC(=O)Nc6cc(C(=O)NCCC(=O)NCCCN(C)C)n(C)c6)n5)n4)n(C)c3)n2)n(C)c1",
    "Ka (×10⁶ /M/s)": 2.4
  },
  {
    "COMPOUND_STRING": "CC(=O)Nc1cc(C(=O)Nc2cn(C)c(C(=O)NCCC(=O)Nc3cc(C(=O)NCCCC(=O)Nc4cn(C)c(C(=O)Nc5cn(C)c(C(=O)NCCC(=O)Nc6cc(C(=O)NCCC(=O)NCCCN(C)C)n(C)c6)n5)n4)n(C)c3)n2)n(C)c1",
    "Ka (×10⁶ /M/s)": 1.4
  },
  {
    "COMPOUND_STRING": "CC(=O)Nc1cc(C(=O)NCCC(=O)Nc2cn(C)c(C(=O)Nc3cc(C(=O)NCC[C@@H](N)C(=O)Nc4cc(C(=O)NCCC(=O)Nc5cn(C)c(C(=O)Nc6cn(C)c(C(=O)NCCC(=O)NCCCN(C)C)n6)n5)n(C)c4)n(C)c3)n2)n(C)c1",
    "Ka (×10⁶ /M/s)": 4.2
  }
]

Quick one: give measured Ka for CC(=O)Nc1cc(C(=O)NCCC(=O)Nc2cn(C)c(C(=O)Nc3cc(C(=O)NCCCC(=O)Nc4cc(C(=O)NCCC(=O)Nc5cn(C)c(C(=O)Nc6cn(C)c(C(=O)NCCC(=O)NCCCN(C)C)n6)n5)n(C)c4)n(C)c3)n2)n(C)c1
9

====

assay: Binding affinity to 5'-ATmCGGAT-3' DNA (unknown origin) assessed as dissociation constant incubated for 180 secs by SPR analysis
RESULT_TYPE: Kd

[
  {
    "COMPOUND_STRING": "CC(=O)Nc1cc(C(=O)Nc2cc(C(=O)Nc3cn(C)c(C(=O)Nc4cc(C(=O)NCCCC(=O)Nc5cc(C(=O)NCCC(=O)Nc6cn(C)c(C(=O)Nc7cn(C)c(C(=O)NCCC(=O)NCCCN(C)C)n7)n6)n(C)c5)n(C)c4)n3)n(C)c2)n(C)c1",
    "Kd": "46 nM"
  }
]

Quick one: give measured Kd for CC(=O)Nc1cc(C(=O)NCCC(=O)Nc2cn(C)c(C(=O)Nc3cc(C(=O)NCCCC(=O)Nc4cc(C(=O)Nc5cc(C(=O)Nc6cn(C)c(C(=O)Nc7cn(C)c(C(=O)NCCC(=O)NCCCN(C)C)n7)n6)n(C)c5)n(C)c4)n(C)c3)n2)n(C)c1
480 nM

Quick one: give measured Kd for CC(=O)Nc1cc(C(=O)Nc2cn(C)c(C(=O)NCCC(=O)Nc3cc(C(=O)NCC[C@H](N)C(=O)Nc4cn(C)c(C(=O)Nc5cn(C)c(C(=O)NCCC(=O)Nc6cc(C(=O)NCCC(=O)NCCCN(C)C)n(C)c6)n5)n4)n(C)c3)n2)n(C)c1
2.3 nM
